Cited source: the supplement of paper PMC9112550

Test system: Escherichia coli TOP10;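 further: peptides expressed intracellularly from a pBAD plasmid library in pooled LB shake-flask culture, induced with 0.3% L-arabinose, DNA abundance read by NGS, three biological replicates, DESeq2 with apeglm shrinkage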
METHOD SUMMARY: shrunken log2 fold change of peptide-encoding DNA abundance (4.5 h post-induction vs induction); higher = less antimicrobial activity (less host growth inhibition)
ASSAY CONTEXT: time post-induction: 4.5 h; library: site-saturation at positions 5, 18, 19, 20
The sequences listed here are annotated with their shrunken log2 fold change.
PROPERTY LABEL: shrunken log2 fold change

[
  {
    "ITEM SEQUENCE": "RRIRTRPPRLPRPRPRPFAYPRP",
    "RECORDED MEASUREMENT": -0.136
  },
  {
    "ITEM SEQUENCE": "RRIRYRPPRLPRPRPRPGNHPRP",
    "RECORDED MEASUREMENT": -0.064
  },
  {
    "ITEM SEQUENCE": "RRIRERPPRLPRPRPRPKDAPRP",
    "RECORDED MEASUREMENT": -0.222
  },
  {
    "ITEM SEQUENCE": "RRIRCRPPRLPRPRPRPASKPRP",
    "RECORDED MEASUREMENT": -0.438
  },
  {
    "ITEM SEQUENCE": "RRIRKRPPRLPRPRPRPEWSPRP",
    "RECORDED MEASUREMENT": 0.0885
  },
  {
    "ITEM SEQUENCE": "RRIRNRPPRLPRPRPRPCQYPRP",
    "RECORDED MEASUREMENT": -0.0135
  },
  {
    "ITEM SEQUENCE": "RRIRLRPPRLPRPRPRPHWVPRP",
    "RECORDED MEASUREMENT": -0.189
  },
  {
    "ITEM SEQUENCE": "RRIRCRPPRLPRPRPRPCRKPRP",
    "RECORDED MEASUREMENT": -0.0115
  },
  {
    "ITEM SEQUENCE": "RRIRNRPPRLPRPRPRPYPNPRP",
    "RECORDED MEASUREMENT": -0.3
  },
  {
    "ITEM SEQUENCE": "RRIRFRPPRLPRPRPRPQCTPRP",
    "RECORDED MEASUREMENT": -0.137
  },
  {
    "ITEM SEQUENCE": "RRIRHRPPRLPRPRPRPYLLPRP",
    "RECORDED MEASUREMENT": -0.611
  },
  {
    "ITEM SEQUENCE": "RRIRLRPPRLPRPRPRPVPCPRP",
    "RECORDED MEASUREMENT": -0.239
  },
  {
    "ITEM SEQUENCE": "RRIRMRPPRLPRPRPRPRRDPRP",
    "RECORDED MEASUREMENT": 0.651
  },
  {
    "ITEM SEQUENCE": "RRIRFRPPRLPRPRPRPQWTPRP",
    "RECORDED MEASUREMENT": -0.075
  },
  {
    "ITEM SEQUENCE": "RRIRYRPPRLPRPRPRPNWHPRP",
    "RECORDED MEASUREMENT": -0.575
  }
]
